tested on: MDA-MB-231 breast; assay: NCI-60 one-dose screen, 48 h; conditions: 10 µM unless noted
About 83,000 compounds went through this panel and 20% of them were active in at least one assay; those are over-represented in the sample as a whole. Calls of active or inactive are those of the source. How the source made its calls: active means growth percent below 10; inactive means the rest.
Thanks in advance; please answer with one of these: active, inactive

Previously resolved entries follow.
molecule | target.or.test.system | qualitative.label
COc1ccc(/C=C\c2cc(OC)c(OC)c(OC)c2)cc1NC(=O)/C=C/c1ccc(OC)c(OC)c1 | MDA-MB-231 breast | inactive
C[C@]12CC[C@H]3[C@@H](CC[C@]4(O)C[C@@H](O[C@@H]5O[C@H](CO)[C@@H](O[C@@H]6OC[C@@H](O)[C@H](O)[C@H]6O)[C@H](O)[C@H]5O)CC[C@]34C=O)[C@@]1(O)CC[C@@H]2C1=CC(=O)OC1 | MDA-MB-231 breast | inactive
CC(=O)OCc1cc[c]([Hg][Cl])o1 | MDA-MB-231 breast | inactive
Cn1cc(-c2csc(-c3cn(CCN4CCOCC4)c4ccccc34)n2)c2cccnc21 | MDA-MB-231 breast | inactive

Shift focus to the following entry.
How did this test come out for COC(=O)[C@H](Cc1ccccc1)NNC(=O)c1csc([C@@H](C[C@H](C(C)C)N(C)C(=O)[C@@H](NC(=O)[C@H]2CCCCN2C)C2CC2)OC(C)=O)n1 ?
active

----------
tested on: OVCAR-5 ovarian; experiment: NCI-60 one-dose screen, 48 h; conditions: 10 µM unless noted
The panel holds about 83,000 compounds, 20% with a hit somewhere; the sample as a whole holds those more often. Calls of active or inactive are those of the source. Rule for the calls: active = growth percent below 10; inactive = the rest.
Thanks in advance; please answer with one of these: 1 = active, 0 = inactive

Previously resolved entries follow.
compound | qualitative.label
CC(=O)O[C@H](C[C@H](C(C)C)N(C)C(=O)[C@@H](NC(=O)[C@H]1CCCCN1C)C(C)C)c1cccc(C(=O)N[C@@H](Cc2ccccc2)C[C@H](C)C(=O)O)n1 | 0
CCCOC(=O)N[C@H]1CCc2c(Br)c(OC)c(OC)c(OC)c2-c2ccc(SC)c(=O)cc21 | 0
C[C@]12CCc3nc(Nc4ccccc4F)sc3C1=CC[C@@H]1[C@@H]2CC[C@]2(C)C(=O)CC[C@@H]12 | 0
CCn1c2ccccc2c2cc(C(=O)c3cccc4c3CCCN4)ccc21 | 0
CCC1CC(O)c2c(O)c3c(c(O)c2C1O)C(=O)c1cccc(O)c1C3=O (stereo not given) (tested in a mixture with another compound) | 1

How did this test come out for CC(C)[C@@H]1NC(=O)[C@]2(C)CSC(=N2)c2csc(n2)CNC(=O)C[C@@H](/C=C/CCS)OC1=O ?
0

How did this test come out for Fc1ccc(N2COOC3(OOC2)C2CC4CC(C2)CC3C4)cc1 ?
0

How did this test come out for COc1cc(/C=C/[N+](=O)[O-])c([N+](=O)[O-])cc1OC ?
1

How did this test come out for c1ccc(CSC(c2ccccc2)c2ccccc2)cc1 ?
0

How did this test come out for CC(C)=CCc1c(O)c(C(=O)CC(C)C)c(O)c2c(-c3ccccc3)cc(=O)oc12 ?
0

How did this test come out for CCCCCCCCOC(=O)CCN1CC1 ?
0

How did this test come out for CC12CCC=CC1CCC1C2CCC2(C)C(c3ccc(=O)oc3)CCC12O (stereo not given) ?
1

How did this test come out for COC(=O)[C@@H](C[C@H](Cc1ccccc1)NC(=O)c1csc([C@@H](C[C@H](C(C)C)N(C)C(=O)[C@@H](NC(=O)[C@H]2CCCCN2C)C(C)C)OC(C)=O)n1)NC(=O)OCc1ccccc1 ?
0

How did this test come out for COc1ccc2c(c1)c(-c1nc(-c3cn(C)c4ncccc34)cs1)cn2CCCCN1CCCCC1 ?
1

How did this test come out for CC[C@H](C)[C@H](NC(=O)[C@H]1CCCCN1C)C(=O)N(C)[C@H](CCc1nc(C(=O)N[C@@H](Cc2ccccc2)C[C@H](C)C(=O)OC)cs1)C(C)C ?
0

How did this test come out for CCOc1ccccc1C(=O)OCC(Cl)(Cl)Cl ?
0

Each recorded value in this set is attributed to PubChem BioAssay (NCI).
